# Test system: LOX IMVI melanoma
# protocol: NCI-60 one-dose screen, 48 h (100 = growth as untreated, 0 = no growth, -100 = all killed)
# test_parameters: 10 µM unless noted
# Experimental: Growth inhibition of the LOX IMVI human tumor cell line is measured as a screen for anti-cancer activity. Cells are grown in 96 well plates and exposed to the test compound for 48 hours. Compounds are tested at a single concentration, which is 10^-5 M for most compounds. The reported endpoint is percent growth (GI% or GIPRCNT), where numbers from 0 - 100% represent growth inhibition, and numbers from -100% - 0 represent cell death. For example, a value of 40 represents 60% growth inhibition. […]
About 83,000 compounds went through this panel and 20% of them were active in at least one assay; those are over-represented in the sample as a whole.
Note to self: use condition met only for growth readings below 90%; a reading exactly at 90% still gets condition not met.

Use these answered entries as a reference point.
compound	label_value
Cc1nn(-c2ccccc2)c2c1oc(=O)c1cc(Cl)ccc12	condition not met
CCOC(=O)/C(=C/c1ccccc1)C(=O)c1ccccc1	condition met

Request: Dear colleague, could you confirm whether growth of Nc1ccc2c(c1)/C(=N/O)c1cc([N+](=O)[O-])ccc1-2 falls below 90%? Thanks.
Result: condition met

Request: Dear colleague, could you confirm whether growth of O=[N+]([O-])c1ccc(N/N=C\c2ccccc2[N+](=O)[O-])nc1 falls below 90%? Thanks.
Result: condition not met

Request: Dear colleague, could you confirm whether growth of COc1ccc2nccc(/C=C/c3ccnc4ccc(OC)cc34)c2c1 falls below 90%? Thanks.
Result: condition not met

Request: Dear colleague, could you confirm whether growth of CCCCCCCC/C=C/CCCCCCCC1=NC(C)(C)CN1CC(C)O (stereo not drawn) falls below 90%? Thanks.
Result: condition met

Request: Dear colleague, could you confirm whether growth of Cc1ccc(NC(=O)COC(=O)c2ccc(S(=O)(=O)N3CCCCCC3)cc2)cc1 falls below 90%? Thanks.
Result: condition not met

----------
Measured growth, listed per entry.
# System: HCC-2998 colon
# protocol: NCI-60 one-dose screen, 48 h (100 = growth as untreated, 0 = no growth, -100 = all killed)
# test_parameters: 10 µM unless noted
Compounds without any hit were thinned out: in the full panel of roughly 83,000, 20% have a hit.
The reply should contain only the number, in %.

Some compounds with recorded growth:
>>> print(df.to_string())
                                        mol  assay_value
0  Nc1ccc2c(c1)/C(=N/O)c1cc([N+](=O)[O-])ccc1-2          103
1  Cn1c(=O)c2c(nc(Br)n2CCC(=O)Nc2ccc(F)cc2)n(C)c1=O          103
2  COc1ccc(-n2nnc(C(=O)O)c2-c2cc(OC)c(OC)c(OC)c2)cc1         99.1
3  CCN(CC)c1ccc(N=Nc2cc(Cl)ccc2Cl)c(NC(=O)CCC(=O)O)c1          107

Then this compound:
Request: // map COc1ccc2c(c1)C(=O)/C(=C/c1ccc([N+](=O)[O-])s1)O2 to recorded growth (system: HCC-2998 colon)
Result: -6.91

----------
# Tested on: SF-295 CNS
# protocol: NCI-60 one-dose screen, 48 h (100 = growth as untreated, 0 = no growth, -100 = all killed)
# test_parameters: 10 µM unless noted
Compounds without any hit were thinned out: in the full panel of roughly 83,000, 20% have a hit.
measurement_kind: growth (%)
The reply should contain only the number, in %.

Some molecules with recorded growth:
                                        mol  assay_value
0                     CN1COc2ccc3ccccc3c2C1         96.1
1  Fc1ccc(-c2nnc(-c3c(-c4ccc(F)cc4)nc4ncccn34)o2)cc1           93

Request: // returns reported growth for input CCOC(=O)/C=C(/C)Sc1cc(O)c2ccccc2c1O
Result: 30.2

Request: // returns reported growth for input c1ccc(Nc2nnc(-c3cc(-c4cccnc4)n(-c4ccccc4)n3)s2)cc1
Result: 40.8

Request: // returns reported growth for input CN(C)c1cccc2c(S(=O)(=O)N[C@H]3CC[C@H]4[C@@H]5CCc6cc(O)ccc6[C@H]5CC[C@]34C)cccc12
Result: 44.9

----------
Measured growth, listed per entry.
# Test system: NCI/ADR-RES ovarian
# protocol: NCI-60 one-dose screen, 48 h (100 = growth as untreated, 0 = no growth, -100 = all killed)
# test_parameters: 10 µM unless noted
The panel holds about 83,000 compounds, 20% with a hit somewhere; the sample as a whole holds those more often.
The reply should contain only the number, in %.

compound	units_text	growth
Nc1nonc1-c1nc2ccccc2n1CC(=O)Nc1ccc2c(c1)COC2=O	%	85.6
COC(=O)[C@]12CC[C@@H](C)[C@H](C)[C@@H]1C1=CC[C@@H]3[C@@]4(C)C=C(O)C(=O)[C@@]5(C)COC(=C54)C[C@@]3(C)[C@]1(C)CC2	%	-42.8
COc1cc(/C=C/C(=O)Nc2ccc3c(c2)/C(=C\c2cccn2C)C(=O)N3)cc(OC)c1OC	%	84.2

Request: // returns reported growth for input C=C1c2c(C)nn(-c3ccc(C#CCOC4OC(CO)C(O)C(O)C4O)cc3)c2N(C)C23C[C@H]1C1(C)c4c(C)nn(-c5ccc(C#CCOC6OC(CO)C(O)C(O)C6O)cc5)c4N(C)C(C)(C[C@H]12)C3 (stereo partly specified)
Result: 77.2

Request: // returns reported growth for input COc1cc(C2CC(c3ccc(C)cc3)=NN2C(C)=O)ccc1Oc1ccnc2cc(Cl)ccc12 (stereo unspecified)
Result: 54.6

Request: // returns reported growth for input Cc1[nH]n(C(N)=S)c(=O)c1N=Nc1ccc(F)c(Cl)c1
Result: 117

Request: // returns reported growth for input COc1ccc(-c2cc(Cc3cccs3)c(=O)n(Cn3ccc4ccccc43)n2)cc1
Result: 107

Request: // returns reported growth for input CC(C)[O-].CC(C)[O-].CN(CCN(C)Cc1cc(F)cc(F)c1[O-])Cc1cc(F)cc(F)c1[O-].[Ti+4]
Result: 11.2

Request: // returns reported growth for input CC(O)c1nc2c(c(=O)n(C)c(=O)n2C)n1C (stereo unspecified)
Result: 113

----------
# Tested on: COLO 205 colon
# protocol: NCI-60 one-dose screen, 48 h (100 = growth as untreated, 0 = no growth, -100 = all killed)
# test_parameters: 10 µM unless noted
# Protocol: Cells are grown in 96 well plates and exposed to the test compound for 48 hours. Compounds are tested at a single concentration, which is 10^-5 M for most compounds. The reported endpoint is percent growth (GI% or GIPRCNT), where numbers from 0 - 100% represent growth inhibition, and numbers from -100% - 0 represent cell death. For example, a value of 40 represents 60% growth inhibition. A value of 0 means no net growth occurred over the course of the experiment. […]
This is part of a sample that, as a whole, favours compounds with a hit. Of some 83,000 tested, about 20% had one in any assay. Activity calls are given as the source filed them. How the source made its calls: active means growth percent below 10; inactive means the rest.
Measured growth, listed per entry.

Some compounds with recorded growth:
                                   compound  subject_of_test       assay_value
0        CN(C)c1ccc(/C=C\c2ccnc3ccccc23)cc1   COLO 205 colon  81.2% (inactive)
1  COc1ccc(-c2nc3sccn3c2-c2ccnc(S(C)(=O)=O)n2)cc1   COLO 205 colon  84.2% (inactive)
2                 CC(=O)n1c2ccccc2c2ccccc21   COLO 205 colon   148% (inactive)
3  C[C@]12C[C@H](O)[C@H]3[C@@H](CCC4=CC(=O)CC[C@@]43C)[C@@H]1CC[C@@H]2C(=O)CO   COLO 205 colon    96% (inactive)
4  OC(CCC(O)(c1ccccc1)c1ccccc1)(c1ccccc1)c1ccccc1   COLO 205 colon   103% (inactive)

Request: // returns reported growth for input CCCCCCCC1(C)NC(=O)NC1=O (configuration not stated)
Result: 120% (inactive)

Request: // returns reported growth for input Nc1ccc(C2=NN(c3ccccc3)C(c3ccc(Cl)cc3)C2)cc1 (configuration not stated)
Result: 101% (inactive)

Request: // returns reported growth for input COc1ccc(Nc2ccnc(NCCCNc3ccnc4cc(Cl)ccc34)n2)cc1
Result: -65% (active)

----------
# Test system: A549/ATCC NSCLC
# protocol: NCI-60 one-dose screen, 48 h (100 = growth as untreated, 0 = no growth, -100 = all killed)
# test_parameters: 10 µM unless noted
The panel holds about 83,000 compounds, 20% with a hit somewhere; the sample as a whole holds those more often.
Measured growth, listed per entry.
The reply should contain only the number, in %.

Request: // returns reported growth for input CCN1C2=C(SC(=S)C1=C1SC(C(=O)OC)=C(C(=O)OC)S1)SC(=Nc1ccc(OC)cc1)C2=O
Result: 17.7

Request: // returns reported growth for input COc1cc2cn3c4ccc(O)cc4nc(N)c3c2cc1OC
Result: 18.4

Request: // returns reported growth for input Cn1cnc([N+](=O)[O-])c1S(=O)(=O)Oc1ccc(Cl)cc1
Result: 96

Request: // returns reported growth for input O=C1/C(=C/c2ccc([N+](=O)[O-])o2)Oc2ccc(Cl)cc21
Result: 92.4
